- Assay details: qHTS for Inhibitors of human tyrosyl-DNA phosphodiesterase 1 (TDP1): qHTS in cells in presence of CPT; also: nearly all actives have a fitted effect of over 55% in size
- Reported conditions: chicken DT40 Tdp1-/-;hTDP1 cells + 20 nM CPT, ATP luminescence, 48 h; series mostly up to 46.2 µM
Out of some 420,000 compounds screened, about 50,000 (12%) were called active. Inconclusive results (about 26%) are left out. Calls follow the shape of the dose curve; as a rule, active = well fitted inhibition curve with a large enough effect; inconclusive = small, poorly fitted or top-dose-only effect; inactive = flat fitted curve, though single readings scatter. Many of the other results were omitted from the sample, so actives are more common in it than they were.
In this exercise, the only acceptable responses are Y (active), N (inactive)

Query string: Short answer needed: outcome of this test for "COC(=O)[C@]12CCCCC=C1N(Cc1ccccc1)C(=O)[C@H](CC(=O)NCc1ccc(C)o1)C2" ?
Result string: N

Query string: Short answer needed: outcome of this test for "O=C(NCCS(=O)(=O)N1CCN(c2ccc(F)cc2)CC1)c1ccccc1Br" ?
Result string: N

Query string: Short answer needed: outcome of this test for CNc1nc(=O)n(C2CCCO2)cc1C (stereo unspecified) ?
Result string: N

Query string: Short answer needed: outcome of this test for "Cc1ccc(C(=O)N2CC(=O)Nc3ccccc32)o1" ?
Result string: N

Query string: Short answer needed: outcome of this test for "Nc1ccc(N=Nc2ccccc2Cl)c(N)n1" ?
Result string: N

Query string: Short answer needed: outcome of this test for "CCCCN(CC)CCCNC(=O)c1nn(C)c2c1CSc1ccccc1-2" ?
Result string: Y

Query string: Short answer needed: outcome of this test for "COc1ccc(C(=O)OCC(=O)Nc2ccc3[nH]c(=O)[nH]c3c2)c(OC)c1OC" ?
Result string: N

Query string: Short answer needed: outcome of this test for O=C(C1CC1)N1N=C2CCCCC2C1(O)C(F)(F)F (stereo unspecified) ?
Result string: N

Query string: Short answer needed: outcome of this test for "O=c1c2c3c(sc2n(CCN2CCCC2)c(=O)n1Cc1ccccc1)CCCCC3" ?
Result string: Y

Query string: Short answer needed: outcome of this test for CC(CCn1cccn1)NC(=O)CCc1nnc(CCc2ccccc2)o1 (stereo unspecified) ?
Result string: N

Query string: Short answer needed: outcome of this test for "COc1cc2c(cc1OC)C(=O)NCC(C)(C)O2" ?
Result string: N
